Run Description: small molecules captured by biotinylated probe aFGF2 – biochemical, small-molecule microarray, fluorescence 635/667, stem cell growth factor project, primary screen (AID 1067);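 note: measures binding of biotinylated aFGF2 protein to printed compounds on slides; z-score merges feature fluorescence and signal-to-noise across triplicate slides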
Run Conditions: higher = more signal
Metric: composite z-score

Lookup: Which value of composite z-score has been reported for `O=C1O[C@H](c2ccccc2)[C@H](c2ccccc2)N2[C@H]1[C@@H](C(=O)NC[C@H](O)c1ccccc1)[C@]1(C(=O)Nc3ccc(C#CC4(O)CCCCCC4)cc31)[C@H]2c1ccccc1OCCO` in the records?
Found: -0.136

Lookup: Which value of composite z-score has been reported for `COCCOC(=O)N1C(=O)[C@@]2(c3ccccc31)[C@H](c1ccc(O)cc1)N1[C@H](c3ccccc3)[C@H](c3ccccc3)OC(=O)[C@H]1[C@@H]2C(N)=O` in the records?
Found: -0.106

Lookup: Which value of composite z-score has been reported for `CCCCC(=O)N(Cc1ccccc1F)[C@@H]1CC(C(=O)NCCO)=C[C@H](Oc2c(I)cc(CO)cc2OC)[C@H]1O` in the records?
Found: -0.0462
